test: Cmax in Sprague-Dawley rat at 50 mg/kg, ip measured upto 24 hrs by LC-MS/MS analysis; format: ADME, organism-based; settings: in vivo
metric_name: Cmax (ng/mL)
Report the value in ng/mL with no unit label.

Ask: Please give the measured Cmax for this compound: O=C(CCl)c1c[nH]c2cc(Cl)c(OCc3cccc(C(F)(F)F)c3)cc12
Result: 28

###

assay: MRTinfinity in Sprague-Dawley rat at 50 mg/kg, ip measured upto 24 hrs by LC-MS/MS analysis; type: ADME, organism-based; conditions: in vivo
metric_name: MRT inf (h)
Report the value in h with no unit label.

Ask: Please give the measured MRT inf for this compound: O=C(CCl)c1c[nH]c2cc(Cl)c(OCc3cccc(C(F)(F)F)c3)cc12
Result: 9.65

###

test: Tmax in Sprague-Dawley rat at 50 mg/kg, ip measured upto 24 hrs by LC-MS/MS analysis; type: ADME, organism-based; settings: in vivo
metric_name: Tmax (h)
Report the value in h with no unit label.

Ask: Please give the measured Tmax for this compound: O=C(CCl)c1c[nH]c2cc(Cl)c(OCc3cccc(C(F)(F)F)c3)cc12
Result: 2.67

###

assay: AUClast in Sprague-Dawley rat at 50 mg/kg, ip measured upto 24 hrs by LC-MS/MS analysis; type: ADME, organism-based; conditions: in vivo
metric_name: AUC(0-t) at 24 h (ng·h/mL)
Report the value in ng·h/mL with no unit label.

Ask: Please give the measured AUC(0-t) at 24 h for this molecule: O=C(CCl)c1c[nH]c2cc(Cl)c(OCc3cccc(C(F)(F)F)c3)cc12
Result: 175
